# Study Target: 14-3-3σ (Homo sapiens, UniProt P31947)
# Construct: The 14-3-3 σ isoform (full-length for mass spectrometry and fluorescence anisotropy assays, ΔC for crystallography); made in house; host or cells: E. coli Rosetta 2(DE3)pLysS, pPROEX HTb vector
# Sequence (P31947 1-248): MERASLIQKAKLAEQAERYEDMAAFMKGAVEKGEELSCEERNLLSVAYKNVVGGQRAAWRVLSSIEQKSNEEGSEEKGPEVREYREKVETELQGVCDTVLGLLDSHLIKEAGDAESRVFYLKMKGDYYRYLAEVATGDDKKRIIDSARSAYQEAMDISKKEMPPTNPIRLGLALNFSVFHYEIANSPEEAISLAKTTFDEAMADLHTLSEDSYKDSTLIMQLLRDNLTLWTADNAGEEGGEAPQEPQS
# Measurement Protocol: Mass spectrometry dose response, compound binding to 14-3-3σ in the absence of peptide (apo)
# Condition Summary: 100 nM compound, 100 nM 14-3-3σ, 16h
Property Measured: Percentage (%) bound of compound to 14-3-3σ, APO 16h

Compound Structure | Readout Number
O=C(CCl)NCC1CCN(C(=O)C2(Oc3ccc(Cl)cc3)CCOCC2)CC1 | 0
O=C(CCl)NCC1CCN(C(=O)C2(Oc3ccccc3)CCCC2)CC1 | 1.0
CC(C)(Oc1ccc(Cl)cc1)C(=O)N1CCC(CCC(=O)CCl)CC1 | 72.0
CC(C)(Nc1ccccc1)C(=O)N1CCC(CNC(=O)CCl)CC1 | 0
